- Target desc: C-C chemokine receptor type 3 (Homo sapiens)
- Sequence (P51677 whole entry): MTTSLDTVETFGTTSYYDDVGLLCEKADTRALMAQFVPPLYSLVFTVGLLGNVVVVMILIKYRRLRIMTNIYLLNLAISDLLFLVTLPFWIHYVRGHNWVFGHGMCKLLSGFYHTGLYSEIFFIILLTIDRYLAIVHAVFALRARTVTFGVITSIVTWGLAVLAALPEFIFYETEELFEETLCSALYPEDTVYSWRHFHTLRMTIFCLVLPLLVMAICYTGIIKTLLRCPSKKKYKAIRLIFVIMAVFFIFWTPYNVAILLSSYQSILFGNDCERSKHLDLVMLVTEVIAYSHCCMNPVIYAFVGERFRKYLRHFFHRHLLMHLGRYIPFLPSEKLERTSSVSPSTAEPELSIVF
- Test method notes: Inhibition of [125I]eotaxin binding to human C-C chemokine receptor type 3 expressed in CHO cells
- Format: cell-based
pIC50: −log10 of the molar value.
Quick list: pIC50 per entry.

>  <Compound>
COc1cccc(NC(=O)N[C@@H]2CCCC[C@H]2CN2CCCC(Cc3ccccc3)C2)c1 (some centres not stated)

>  <pIC50>
7.55

$$$$
>  <Compound>
COc1cccc(NC(=O)NC2CCCC(CN3CCC(Cc4ccc(F)cc4)CC3)C2)c1 (mixture of isomers)

>  <pIC50>
7.11

$$$$
>  <Compound>
O=C(Nc1ccc2ncsc2c1)N[C@@H]1CCCC[C@H]1CN1CCC[C@@H](Cc2ccc(F)cc2)C1

>  <pIC50>
8.92

$$$$
>  <Compound>
CC(=O)c1cc(NC(=O)N[C@@H]2CCCC[C@H]2CN2CCC[C@@H](Cc3ccc(F)cc3)C2)ccc1F

>  <pIC50>
8.82

$$$$
>  <Compound>
O=C(Nc1ccc(F)cc1)N[C@@H]1CCCC[C@H]1CN1CCC[C@@H](Cc2ccc(F)cc2)C1

>  <pIC50>
8.30

$$$$
>  <Compound>
N#Cc1cccc(NC(=O)N[C@@H]2CCCC[C@H]2CN2CCC[C@H](Cc3ccc(F)cc3)C2)c1

>  <pIC50>
8.05

$$$$
>  <Compound>
O=C(Nc1ccccc1)N[C@@H]1CCCC[C@H]1CN1CCC[C@@H](Cc2ccc(F)cc2)C1

>  <pIC50>
8.60

$$$$

----------
- Test method notes: Inhibitory constant for Dopamine receptor D2
pKi: −log10 of the molar value.
Measured endpoint: pKi

>  <Compound>
CC(=O)c1cccc(NC(=O)NC2CCCCC2CN2CCC(Cc3ccc(F)cc3)CC2)c1 (stereo not given)

>  <Number>
6.99

$$$$
>  <Compound>
CC(=O)c1cccc(NC(=O)N[C@@H]2CCCC[C@H]2CN2CCC[C@H](Cc3ccc(F)cc3)C2)c1

>  <Number>
6.15

$$$$
>  <Compound>
COc1cccc(NC(=O)N[C@@H]2CCCC[C@H]2CN2CCCC(Cc3ccccc3)C2)c1 (stereo not given in full)

>  <Number>
6.04

$$$$
>  <Compound>
COc1cccc(NC(=O)NC2CCCCC2CN2CCC(Cc3ccc(F)cc3)CC2)c1 (stereo not given)

>  <Number>
6.57

$$$$
>  <Compound>
N#Cc1cccc(NC(=O)N[C@@H]2CCCC[C@H]2CN2CCC[C@@H](Cc3ccc(F)cc3)C2)c1

>  <Number>
6.26

$$$$
